These measurements were taken from patent US9951088B2.

Listed next: entries and their corresponding IC50.
Molecular target: long isoform of human D2 receptor (Homo sapiens, UniProt P14416)
Sequence (P14416 whole entry, canonical isoform): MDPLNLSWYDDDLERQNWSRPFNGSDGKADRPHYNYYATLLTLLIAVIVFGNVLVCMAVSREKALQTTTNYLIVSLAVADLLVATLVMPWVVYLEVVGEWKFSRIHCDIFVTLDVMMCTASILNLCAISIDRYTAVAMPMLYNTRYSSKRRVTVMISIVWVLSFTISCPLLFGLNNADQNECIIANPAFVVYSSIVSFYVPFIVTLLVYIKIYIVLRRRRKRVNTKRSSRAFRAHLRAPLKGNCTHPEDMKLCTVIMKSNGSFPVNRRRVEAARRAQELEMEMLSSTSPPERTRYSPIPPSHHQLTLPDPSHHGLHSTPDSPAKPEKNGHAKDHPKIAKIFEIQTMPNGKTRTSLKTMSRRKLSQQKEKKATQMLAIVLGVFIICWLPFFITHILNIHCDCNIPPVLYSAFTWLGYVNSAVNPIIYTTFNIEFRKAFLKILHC
Experiment: cAMP HTRF Agonist Assay (DRD2L PathHunter CHO-K1 cells, forskolin-stimulated)
metric: IC50

O=C1CCc2ccc(OCCCCN3CCc4nn(-c5cccc(F)c5)cc4C3)cc2N1 [Compound 36]	< 0.01 µM
O=C1CCc2ccc(OCCCCN3CCc4c(Cl)cccc4C3)nc2N1 [Compound 76]	< 0.01 µM
Clc1cccc(N2CCN(CCCCOc3cccc(-c4cc[nH]n4)n3)CC2)c1Cl [Compound 46]	< 0.01 µM
CCOc1ccccc1N1CCN(CCCCOc2ccc3cn[nH]c3c2)CC1 [Compound 93]	< 0.01 µM
COc1ccc2c(c1)CCN(CCCCOc1ccc3c(n1)NC(=O)CC3)C2 [Compound 71]	> 10 µM
Clc1cccc(N2CCN(CCCCOc3ccc4cn[nH]c4n3)CC2)c1Cl [Compound 1]	< 0.01 µM

----------
Target: long isoform of human D2 receptor (Homo sapiens, UniProt P14416)
Assay: Arrestin Antagonist Assay (DRD2L PathHunter CHO-K1 cells, vs EC80 dopamine)
Conditions: CHO-K1, read-out: β-arrestin (antagonist mode) Imax
metric: Emax

Cc1cccc(N2CCN(CCCCOc3ccc4cccc(O)c4n3)CC2)c1C	> 75%
O=c1ccc2ccc(OCCCCN3CCc4cc(C(F)(F)F)ccc4C3)nc2[nH]1	> 75%
O=C1CCc2ccc(OCCCCN3CCn4cncc4C3)cc2N1	50 to 75%

----------
Biological target: long isoform of human D2 receptor (Homo sapiens, UniProt P14416)
Assay: cAMP HTRF Agonist Assay (DRD2L PathHunter CHO-K1 cells, forskolin-stimulated)
Details: CHO-K1, read-out: cAMP (agonist mode) Emax
metric: Emax

O=c1ccc2ccc(OCCCCN3CCc4nn(-c5ccccn5)cc4C3)nc2[nH]1	10 to 25%
N#Cc1cccnc1N1CCN(CCCCOc2ccc3cccc(O)c3n2)CC1	25 to 50%
c1cc(OCCCCN2CCc3ccccc3C2)nc(-c2c[nH]cn2)c1	< 10%
Oc1cccc2ccc(OCCCCN3CCN(c4cccc5ccccc45)CC3)nc12	25 to 50%
O=C1CCc2ccc(OCCCCN3CCc4ncsc4C3)cc2N1	25 to 50%
Cc1ccc2c(c1)CN(CCCCOc1ccc3c(n1)NC(=O)CC3)CC2	< 10%
O=C1CCc2ccc(OCCCCN3CCc4nn(-c5ccccn5)cc4C3)cc2N1	50 to 75%
c1ccc(N2CCN(CCCCOc3ccc4cn[nH]c4c3)CC2)nc1	> 75%
CCOc1ccccc1N1CCN(CCCCOc2ccc3cn[nH]c3c2)CC1	25 to 50%
O=c1ccc2ccc(OCCCCN3CCc4ccsc4C3)nc2[nH]1	< 10%
Oc1cccc2ccc(OCCCCN3CCc4sccc4C3)nc12	< 10%
O=C1CCc2ccc(OCCCCN3CCc4sccc4C3)nc2N1	< 10%
O=c1ccc2ccc(OCCCCN3CCc4ccccc4C3)nc2[nH]1	50 to 75%
Oc1cccc2ccc(OCCCCN3CCc4cc(Cl)ccc4C3)nc12	< 10%
O=C1NCCc2ccc(OCCCCN3CCc4cc(F)ccc4C3)nc2N1	< 10%
N#Cc1cccc2c1CN(CCCCOc1ccc3c(n1)NC(=O)CC3)CC2	< 10%
O=C1CCc2ccc(OCCCCN3CCc4ncncc4C3)cc2N1	50 to 75%
Oc1cccc2ccc(OCCCCN3CCc4cc(F)ccc4C3)nc12	< 10%
O=C1CCc2ccc(OCCCCN3CCc4cc(F)ccc4C3)nc2N1	< 10%
Oc1cccc2ccc(OCCCCN3CCN(c4ccccn4)CC3)nc12	> 75%
O=C1CCc2ccc(OCCCCN3CCc4cc(Cl)ccc4C3)nc2N1	10 to 25%
O=C1CCc2ccc(OCCCCN3CCc4nn(-c5cccc(F)c5)cc4C3)cc2N1	> 75%
N#Cc1ccc2c(c1)CCN(CCCCOc1ccc3cccc(O)c3n1)C2	< 10%
O=C1CCc2ccc(OCCCCN3CCc4c(cccc4C(F)(F)F)C3)nc2N1	50 to 75%
O=C1NCCc2ccc(OCCCCN3CCc4sccc4C3)nc2N1	< 10%
O=c1ccc2ccc(OCCCCN3CCc4c(cccc4C(F)(F)F)C3)nc2[nH]1	> 75%
O=C1NCCc2ccc(OCCCCN3CCc4nn(-c5ccccn5)cc4C3)nc2N1	> 75%
CN(C)c1ncnc2c1CCN(CCCCOc1ccc3c(c1)NC(=O)CC3)C2	25 to 50%

----------
Listed next: entries and their corresponding Emax.
Target: long isoform of human D2 receptor (Homo sapiens, UniProt P14416)
Test: Arrestin Antagonist Assay (DRD2L PathHunter CHO-K1 cells, vs EC80 dopamine)
Conditions: CHO-K1, read-out: β-arrestin (antagonist mode) Imax
metric: Emax

COc1cccnc1N1CCN(CCCCOc2cccc(-c3cc[nH]n3)n2)CC1 [Compound 47]	50 to 75%
O=c1ccc2ccc(OCCCCN3CCc4ccccc4C3)nc2[nH]1 [Compound 52]	> 75%
CCOc1ccccc1N1CCN(CCCCOc2ccc3cn[nH]c3c2)CC1 [Compound 93]	> 75%
Cc1ccccc1N1CCN(CCCCOc2ccc3cn[nH]c3c2)CC1 [Compound 96]	> 75%
COc1ccc2c(c1)CCN(CCCCOc1ccc3c(n1)NC(=O)CC3)C2 [Compound 71]	> 75%
O=C1NCCc2ccc(OCCCCN3CCc4nn(-c5ccccn5)cc4C3)nc2N1 [Compound 90]	< 10%
CCOc1cccnc1N1CCN(CCCCOc2ccc3cccc(O)c3n2)CC1 [Compound 10]	> 75%
N#Cc1cccc2c1CN(CCCCOc1ccc3ccc(=O)[nH]c3n1)CC2 [Compound 64]	> 75%
Oc1cccc2ccc(OCCCCN3CCc4cc(F)ccc4C3)nc12 [Compound 16]	> 75%
O=c1ccc2ccc(OCCCCN3CCc4cccc(C(F)(F)F)c4C3)nc2[nH]1 [Compound 63]	> 75%
N#Cc1ccc2c(c1)CCN(CCCCOc1ccc3cccc(O)c3n1)C2 [Compound 15]	> 75%
O=c1ccc2ccc(OCCCCN3CCc4cc(Cl)ccc4C3)nc2[nH]1 [Compound 59]	> 75%
O=C1CCc2ccc(OCCCCN3CCc4nn(-c5ccccc5)cc4C3)nc2N1 [Compound 82]	> 75%
Clc1cccc(N2CCN(CCCCOc3cccc(-c4cc[nH]n4)n3)CC2)c1Cl [Compound 46]	50 to 75%
O=C1CCc2ccc(OCCCCN3CCc4nn(-c5ccccc5)cc4C3)cc2N1 [Compound 30]	> 75%
O=C1CCc2ccc(OCCCCN3CCc4cc(C(F)(F)F)ccc4C3)nc2N1 [Compound 74]	> 75%
CC(=O)Nc1cccc(OCCCCN2CCc3ccccc3C2)n1 [Compound 40]	> 75%
c1ccc(N2CCN(CCCCOc3ccc4cn[nH]c4c3)CC2)nc1 [Compound 94]	< 10%
Oc1cccc2ccc(OCCCCN3CCc4c(Cl)cccc4C3)nc12 [Compound 20]	< 10%
O=c1ccc2ccc(OCCCCN3CCc4cc(F)ccc4C3)nc2[nH]1 [Compound 56]	> 75%
Clc1ccccc1N1CCN(CCCCOc2cccc(-c3cc[nH]n3)n2)CC1 [Compound 50]	50 to 75%
O=C1NCCc2ccc(OCCCCN3CCc4nn(-c5ccccc5)cc4C3)nc2N1 [Compound 89]	50 to 75%
COc1cccnc1N1CCN(CCCCOc2ccc3cn[nH]c3c2)CC1 [Compound 99]	> 75%
O=C1CCc2ccc(OCCCCN3CCc4cc(F)ccc4C3)nc2N1 [Compound 72]	> 75%
O=C1CCc2ccc(OCCCCN3CCc4ccsc4C3)nc2N1 [Compound 70]	> 75%
O=C1NCCc2ccc(OCCCCN3CCc4sccc4C3)nc2N1 [Compound 86]	> 75%
Oc1cccc2ccc(OCCCCN3CCc4ccsc4C3)nc12 [Compound 19]	> 75%
O=C1CCc2ccc(OCCCCN3CCc4c(cnn4-c4cccc(Cl)c4)C3)cc2N1 [Compound 32]	> 75%
N#Cc1cccnc1N1CCN(CCCCOc2cccc(-c3cc[nH]n3)n2)CC1 [Compound 48]	25 to 50%

----------
Listed next: entries and their corresponding IC50.
Biological target: long isoform of human D2 receptor (Homo sapiens, UniProt P14416)
Assay: Arrestin Antagonist Assay (DRD2L PathHunter CHO-K1 cells, vs EC80 dopamine)
metric: IC50

c1ccc(N2CCN(CCCCOc3ccc4cn[nH]c4c3)CC2)nc1 [Compound 94]	> 10000 nM
N#Cc1cccc2c1CCN(CCCCOc1ccc3ccc(=O)[nH]c3n1)C2 [Compound 62]	> 10000 nM
O=C1NCCc2ccc(OCCCCN3CCc4cc(F)ccc4C3)nc2N1 [Compound 84]	10 to 100 nM
Oc1cccc2ccc(OCCCCN3CCc4cccc(C(F)(F)F)c4C3)nc12 [Compound 21]	100 to 1000 nM
Cc1cccc(N2CCN(CCCCOc3ccc4cn[nH]c4n3)CC2)c1C [Compound 3]	100 to 1000 nM
O=C1NCCc2ccc(OCCCCN3CCc4cc(Cl)ccc4C3)nc2N1 [Compound 85]	10 to 100 nM
c1ccc2c(N3CCN(CCCCOc4ccc5cn[nH]c5n4)CC3)cccc2c1 [Compound 2]	100 to 1000 nM
O=C1CCc2ccc(OCCCCN3CCc4nn(-c5cccc(F)c5)cc4C3)cc2N1 [Compound 36]	> 10000 nM
